biological target: Proto-oncogene tyrosine-protein kinase Src (Homo sapiens); further: in the data inactive means no Kd found up to 30 µM
Sequence (P12931 2-536 limits assumed): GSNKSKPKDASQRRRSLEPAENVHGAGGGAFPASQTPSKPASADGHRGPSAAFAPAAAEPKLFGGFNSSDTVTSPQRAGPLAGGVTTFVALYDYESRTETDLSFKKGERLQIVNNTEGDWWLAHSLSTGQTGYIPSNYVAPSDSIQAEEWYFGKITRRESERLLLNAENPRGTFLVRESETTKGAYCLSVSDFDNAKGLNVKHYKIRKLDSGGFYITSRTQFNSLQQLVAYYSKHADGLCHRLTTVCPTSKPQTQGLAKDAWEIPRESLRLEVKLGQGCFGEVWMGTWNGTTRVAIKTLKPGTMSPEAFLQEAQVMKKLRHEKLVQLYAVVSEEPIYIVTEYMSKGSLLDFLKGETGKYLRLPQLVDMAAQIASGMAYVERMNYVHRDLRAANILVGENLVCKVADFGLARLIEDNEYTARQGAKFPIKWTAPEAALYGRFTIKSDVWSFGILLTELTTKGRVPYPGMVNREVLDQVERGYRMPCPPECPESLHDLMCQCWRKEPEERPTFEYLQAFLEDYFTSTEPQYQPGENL
Calls of active or inactive are those of the source.
Respond using exactly one of the listed classes: yes (active), no (inactive)

Here are 8 compounds together with their reported answers.
Compound	Assigned category
CNS(=O)(=O)Nc1nccc(Cc2c(C)c3ccc(Oc4ncccn4)cc3oc2=O)c1F	no
C[C@@H](Nc1cc(F)cc(F)c1)c1cc(C(=O)N(C)C)cc2c(=O)cc(N3CCOCC3)oc12	no
COc1cc(N2CCC(N3CCN(C)CC3)CC2)ccc1Nc1ncnc(Nc2ccccc2S(=O)(=O)C(C)C)n1	no
Cn1cc(-c2ccc(F)c(C(F)(F)F)c2)nc1C1CCN(c2ncnc3[nH]ncc23)CC1	no
O=C(c1ccc(F)c(F)c1Nc1ccc(I)cc1F)N1CC(O)([C@@H]2CCCCN2)C1	no
CN1N=C(N)c2cn([C@@H]3O[C@H](COP(=O)(O)O)[C@@H](O)[C@H]3O)c3ncnc1c23 [TRICIRIBINE PHOSPHATE]	no
C[C@@H](c1ccc2nccn2c1)n1nnc2ncc(-c3cnn(C)c3)nc21	no
C[C@@H]1CN(Cc2ccc(F)cc2)[C@@H](C)CN1C(=O)c1cc2c(C(=O)C(=O)N(C)C)cn(C)c2cc1Cl	no

Any idea what this test logged for `Cc1ccc(NC(=O)c2ccc(CN3CC[C@H](N(C)C)C3)c(C(F)(F)F)c2)cc1Nc1nccc(-c2cncnc2)n1` ?
no

Can you handle `C=CC(=O)N1CCC(Oc2cc3c(Nc4ccc(Cl)c(Cl)c4F)ncnc3cc2OC)CC1` next?
no

Also `O=c1sn(-c2cccc3ccccc23)c(=O)n1Cc1ccccc1` ?
no

Queued: `OCCn1cc(-c2cnc3nnn(Cc4ccc5ncccc5c4)c3n2)cn1`
no

Cc1cc2c(F)c(Oc3ncnn4cc(OC[C@@H](C)OC(=O)[C@H](C)N)c(C)c34)ccc2[nH]1 [BRIVANIB ALANINATE] , same question.
no

Entry to check: `C1=C/COCc2cc(ccc2OCCN2CCCC2)Nc2nccc(n2)-c2cccc(c2)COC/1`
no

Param item: `CNC(=O)CN1CCC(Oc2cc3c(Nc4cccc(Cl)c4F)ncnc3cc2OC)CC1`
no

Also check `CNC(=O)c1ccc(-c2cnc3ncc(Cc4ccc5ncccc5c4)n3n2)cc1F`
no

Again, but for `CC[C@H](Nc1ncnc2[nH]cnc12)c1nc2cccc(F)c2c(=O)n1-c1ccccc1`
no

Same lookup for `CO[C@H]1C[C@@H]2CC[C@@H](C)[C@@](O)(O2)C(=O)C(=O)N2CCCC[C@H]2C(=O)O[C@H]([C@H](C)C[C@@H]2CC[C@@H](OCCO)[C@H](OC)C2)CC(=O)[C@H](C)/C=C(\C)[C@@H](O)[C@@H](OC)C(=O)[C@H](C)C[C@H](C)/C=C/C=C/C=C/1C` , please.
no

Now consider `CNC(=O)c1cc(Oc2ccc(NC(=O)Nc3ccc(Cl)c(C(F)(F)F)c3)c(F)c2)ccn1` .
no

Further, for `Cc1c(F)cc(C(=O)NC2CC2)cc1-c1ccc(C(=O)NCC(C)(C)C)cn1` ?
no

Continue with `CN(C)C(=O)c1cc2cnc(Nc3ccc(N4CCNCC4)cn3)nc2n1C1CCCC1`
no

Subsequent entry: `Cc1ccc(S(=O)(=O)Nc2nc3ccccc3nc2Nc2ccc3nsnc3c2)cc1`
no

Data origin, for the record: ChEMBL document CHEMBL3991601
